Data origin: patent US20220259289A1

Biological target: unrelated Fc-fused recombinant protein
Assay: ELISA, negative control Fc protein
measured attribute: ELISA Fc Control (RLU)

Recorded results for 3 binders are shown here.
binder	unit info	val
ISOP193ER9P1A10 (designed binder, not shown: small tags and cut ends) LPAPKNLVVSRVTEDSARLSWTAPDAAFDSFDIYYFEHPVGGEAIVLTVPGSERSYDLTGLKPGTEYLVTIYGVKGGHFSGPLSAIFTT	RLU	1120
ISOP193AR9P1E6 (designed binder, not shown: small tags and cut ends) LPAPKNLVVSRVTEDSARLSWKFHSPTFDSFLIQYQESEKVGEAIVLTVPGSERSYDLTGLKPGTEYTVSIYGVGRHYTVYDSNPLSAIVTT	RLU	1200
ISOP193FR9P1G2 (designed binder, not shown: small tags and cut ends) LPAPKNLVVSRVTEDSARLSWTAPDAAFDSFTIYYFENENGGEAIVLTVPGSERSYDLTGLKPDTEYLVTIYGVKGGHWSRPLSAIFTT	RLU	2560

[a] ISOP193ER9P1C4 (designed binder, not shown: small tags and cut ends) LPAPKNLVVSRVTEDSARLSWTAPDAAFDSFDIYYFEHPVGGEAIVLTVPGSERSYDLTGLKPGTEYLVTIYGVKGGIWSVPLSAIFTT
[b] ISOP193ER9P1G11 (designed binder, not shown: small tags and cut ends) LPAPKNLVVSRVTEDSARLSWTAPDAAFDSFDIYYFEHPVGGEAIVLTVPGSERSYDLTGLKPGTEYLVTIYGVKGGYLSMPLSAIFTT
// which entry has the larger ELISA Fc Control (RLU) value, a or b ? Returns: label corresponding to the selected item.
b
(b: 1440 RLU, a: 960 RLU)
